test: PSAC antagonists in infected red cells, primary screen, cell-based, P. falciparum Indochina, OD700, 18 h (AID 1157); conditions: P. falciparum Indochina infected erythrocytes, osmotic lysis OD700, 18 h; higher = more signal, called active from +8 up or from −8 down
# z-score >= 0.4 gives fulfilled, anything below gives not fulfilled

Completed entries (count: 5):
Cc1ccc(S[C@]2(C(=O)O)CC(=O)N(Cc3cc(C(F)(F)F)cc(C(F)(F)F)c3)[C@@H]2c2ccc(CO)cc2)cc1: fulfilled
O=C(NCC(F)(F)F)[C@@H]1c2ccccc2C(=O)N(Cc2ccccc2C(F)(F)F)[C@H]1c1ccc(CO)cc1: not fulfilled
COc1ccc(NC(=O)O[C@H]2[C@H](OC(=O)Nc3ccccc3)[C@H](OC(=O)Nc3ccccc3)[C@@H](OC)O[C@@H]2CO)cc1: fulfilled
COC(=O)[C@@]1(Cc2ccc(F)cc2)[C@H]2c3cc(C(=O)N(C)C)n(Cc4cc(F)cc5c4OCOC5)c3C[C@H]2CN1C(=O)c1ccccc1: not fulfilled
CCOC(=O)[C@H]1[C@@H]2C(=O)N3CCC[C@H]3[C@H](O[Si](C(C)C)(C(C)C)C(C)C)[C@H]2C=C2CCN(S(=O)(=O)c3ccc(C)cc3)C[C@H]21: fulfilled

Is reported z-score greater than or equal to 0.4 here: `CCOC(=O)C[C@H]1[C@H](OC(=O)c2ccc(C(=O)c3ccccc3)cc2)[C@@H](NC(=O)Cc2ccc(OC)cc2)c2cc(OCCCO)ccc2N1C(=O)c1ccccc1`
not fulfilled

Next entry: `CC(C)C(=C=CC[C@H](O)c1cccc(OCCO)c1)C[C@H](O)c1cc(Cl)cc(Cl)c1O`
fulfilled

Next entry: `COC(=O)[C@@]1(Cc2ccc(OC)cc2)[C@H]2c3cc(C(=O)N(C)C)n(CCO)c3C[C@H]2CN1C(=O)c1ccccc1`
fulfilled

Next entry: `CC(C)C[C@@H]1NC(=O)[C@@H]2C[C@H](C(=O)NCCCCN(C)C)[C@H](c3cccc(OCCO)c3)N2C1=O`
not fulfilled

Next entry: `COc1ccc([Si](C)(C)[C@@H]2[C@@H](CC(=O)N3Cc4ccccc4C[C@H]3CO)O[C@]3(C(=O)N(Cc4cccc(N5C(=O)c6cccc7cccc5c67)c4)c4ccccc43)[C@H]2C)cc1`
not fulfilled

Next entry: `COc1ccc([Si](C)(C)[C@@H]2[C@@H](CC(=O)N(CCO)Cc3ccccc3)O[C@]3(C(=O)N(Cc4cccc(N5C(=O)c6cccc7cccc5c67)c4)c4ccccc43)[C@H]2C)cc1`
not fulfilled

Next entry: CC(C)N1CC=CC23O[C@@H]4C=CCOC(=O)[C@@H]4[C@H]2C(=O)N(CCCO)[C@@H]3C1=O (some centres not stated)
not fulfilled

Next entry: CCCCCCCCCCC(O)C1C=CC2C(=O)N(C)C(=O)C2N1NC(=O)OC(C)(C)C (configuration not stated)
fulfilled

Next entry: `CC1=C([C@H](O)CCc2ccccc2)[C@H](CO)[C@@H]2C(=O)N(C)C(=O)[C@@H]2C1`
not fulfilled

Next entry: O=C1NC(=O)C2C1C=CC(C(O)c1c(F)cccc1Cl)N2Nc1ccc(Cl)cc1Cl (configuration not stated)
fulfilled

Next entry: `[N-]=[N+]=Nc1ccccc1[C@H]1OC(c2ccc(OCCCO)cc2)=N[C@@]1(CCS(=O)(=O)c1ccccc1)C(=O)NCCN1CCOCC1`
fulfilled

Next entry: `CC(C)Cc1ccc(CN2CC[C@@H](NC(=O)Nc3ccccc3)C2)cc1`
fulfilled
